- method: Permeability from basal to apical side of human Caco2 cells
- Format: ADME, cell-based
- run-parameters: Caco-2, read-out: permeability
property-name: Papp B→A (nm/s)
Give the quantity in nm/s, number only.

Cc1ccc(NC(=O)c2ccc3nc(-c4c(C)cc(OCC(=O)O)cc4C)[nH]c3c2)cc1C | 21
Cc1cc(CCC(=O)O)cc(C)c1-c1nc2ccc(C(=O)Nc3ccc(C(C)(C)C)cc3)cc2[nH]1 | 90
Cc1ccc(NC(=O)c2ccc3nc(-c4c(C)cc(CCC(=O)O)cc4C)[nH]c3c2)cc1C | 100

In the following, a different compound is considered.
Task: Please report the recorded Papp B→A for `Cc1ccc(NC(=O)c2ccc3nc(-c4c(C)cc(NCC(=O)O)cc4C)[nH]c3c2)cc1C` .
Result: 12
